SYSTEM_UNDER_TEST: recombinant human 17β-HSD1 (Homo sapiens)
Construct: made in house; host or cells: Sd9 (Sf9) insect cells, baculovirus (Bac to Bac Expression System)
EXPERIMENT_DESCRIPTION: Inhibition of recombinant human 17β-HSD1 (estrone to estradiol conversion, HPLC/radioactivity)
Assay type: biochemical
EXPERIMENTAL_SETUP: compound 100 nM; 30 nM estrone, 1 mM NADPH, 30 min RT
# binarize inhibition at 0.1 µM: threshold 90% inclusive, high side TRUE, low side FALSE

Example results:
COMPOUND: COc1ccc(NC(=O)CC[C@@H]2c3c[nH]nc3[C@@]3(C)CCC4c5cccc(F)c5CCC4C23)nc1 (some centres unmarked) [Compound 21]
CLASS: TRUE

COMPOUND: Cc1cc(NC(=O)CC[C@@H]2c3c[nH]nc3[C@@]3(C)CCC4c5cccc(F)c5CCC4C23)no1 (some centres unmarked) [Compound 78]
CLASS: FALSE

COMPOUND: C[C@]12CCC3c4cccc(F)c4CCC3C1[C@H](CCC(=O)Nc1cccnn1)c1c[nH]nc12 (some centres unmarked) [Compound 237]
CLASS: FALSE

COMPOUND: C[C@]12CCC3c4cccc(F)c4CCC3C1[C@H](CCC(=O)Nc1ncccc1F)c1c[nH]nc12 (some centres unmarked) [Compound 231]
CLASS: FALSE

COMPOUND: C[C@]12CCC3c4ccc(Cl)cc4CCC3C1[C@H](CCC(=O)Nc1cc3c([nH]c1=O)CCCC3)c1c[nH]nc12 (some centres unmarked) [Compound 123]
CLASS: FALSE

Entry C[C@]12CCC3c4cccc(F)c4CCC3C1[C@H](CCC(=O)Nc1ncc(F)cc1F)c1c[nH]nc12 (some centres unmarked) [Compound 9] : is its inhibition at 0.1 µM no less than 90%?
FALSE

Entry C[C@]12CCC3c4cccc(F)c4CCC3C1[C@H](CCC(=O)Nc1ccc(C#N)cn1)c1c[nH]nc12 (some centres unmarked) [Compound 3] : is its inhibition at 0.1 µM no less than 90%?
TRUE

Entry Cc1ccc(NC(=O)CC[C@@H]2c3c[nH]nc3[C@@]3(C)CCC4c5ccc(F)cc5CCC4C23)nn1 (some centres unmarked) [Compound 111] : is its inhibition at 0.1 µM no less than 90%?
FALSE

Entry C[C@]12CCC3c4ccc(Cl)cc4CCC3C1[C@H](CCC(=O)Nc1cccc(F)n1)c1c[nH]nc12 (some centres unmarked) [Compound 135] : is its inhibition at 0.1 µM no less than 90%?
FALSE

Entry C[C@]12CCC3c4cccc(F)c4CCC3C1[C@H](CCC(=O)N1CCOCC1)c1c[nH]nc12 (some centres unmarked) [Compound 234] : is its inhibition at 0.1 µM no less than 90%?
FALSE

----------
SYSTEM_UNDER_TEST: recombinant human 17β-HSD1 (Homo sapiens)
Construct: made in house; host or cells: Sd9 (Sf9) insect cells, baculovirus (Bac to Bac Expression System)
EXPERIMENT_DESCRIPTION: Inhibition of recombinant human 17β-HSD1 (estrone to estradiol conversion, HPLC/radioactivity)
Assay type: biochemical
EXPERIMENTAL_SETUP: compound 100 nM; 30 nM estrone, 1 mM NADPH, 30 min RT
PROPERTY_NAME: inhibition at 0.1 µM (%)
Give bare numbers, in %.

COMPOUND: Cn1ccc(NC(=O)CC[C@@H]2c3c[nH]nc3[C@@]3(C)CCC4c5ccccc5CCC4C23)n1 (stereo partly shown)
VALUE_REPORTED: 81
--
COMPOUND: C[C@]12CCC3c4cccc(F)c4CCC3C1[C@H](CCC(=O)Nc1cccc(F)n1)c1c[nH]nc12 (stereo partly shown)
VALUE_REPORTED: 96
--
COMPOUND: Cc1ccnc(NC(=O)CC[C@@H]2c3c[nH]nc3[C@@]3(C)CCC4c5cccc(F)c5CCC4C23)c1 (stereo partly shown)
VALUE_REPORTED: 96
--
COMPOUND: C[C@]12CCC3c4ccccc4CCC3C1[C@H](CCC(=O)Nc1cccc(F)n1)c1c[nH]nc12 (stereo partly shown)
VALUE_REPORTED: 90
--
COMPOUND: CN(CC1CC1)C(=O)CC[C@@H]1c2c[nH]nc2[C@@]2(C)CCC3c4cccc(F)c4CCC3C12 (stereo partly shown)
VALUE_REPORTED: 93
--
COMPOUND: C[C@]12CCC3c4cccc(F)c4CCC3C1[C@H](CCC(=O)NC1CCOC1)c1c[nH]nc12 (stereo partly shown)
VALUE_REPORTED: 88

# next compound below
Record request: inhibition at 0.1 µM value, item CC(C)(C)NC(=O)CC[C@@H]1c2c[nH]nc2[C@@]2(C)CCC3c4ccccc4CCC3C12 (stereo partly shown)
87

----------
SYSTEM_UNDER_TEST: recombinant human 17β-HSD2 (Homo sapiens)
Construct: made in house; host or cells: Sd9 (Sf9) insect cells, baculovirus (Bac to Bac Expression System)
Sequence (P37059 whole entry): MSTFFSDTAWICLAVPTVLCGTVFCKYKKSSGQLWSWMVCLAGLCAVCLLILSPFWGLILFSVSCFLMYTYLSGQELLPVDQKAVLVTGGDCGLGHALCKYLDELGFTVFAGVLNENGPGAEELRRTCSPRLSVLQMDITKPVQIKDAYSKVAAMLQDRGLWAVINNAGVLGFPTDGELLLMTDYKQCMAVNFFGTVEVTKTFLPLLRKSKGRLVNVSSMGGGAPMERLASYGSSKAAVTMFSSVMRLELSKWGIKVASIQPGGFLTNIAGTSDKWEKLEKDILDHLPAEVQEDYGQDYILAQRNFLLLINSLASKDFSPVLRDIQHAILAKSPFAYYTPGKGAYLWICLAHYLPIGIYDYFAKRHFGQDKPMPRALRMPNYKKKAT
EXPERIMENT_DESCRIPTION: Inhibition of recombinant human 17β-HSD2 (estradiol to estrone conversion, HPLC/radioactivity)
Format: biochemical
EXPERIMENTAL_SETUP: compound 1 μM; 50 nM estradiol, 1 mM NADH, 30 min RT
PROPERTY_NAME: inhibition at 1 µM (%)
One number for each entry, in %.

Use these answered entries as a reference point.
COMPOUND: C[C@]12CCC3c4ccc(F)cc4CCC3C1[C@H](CCC(=O)Nc1ccc(N3CCOCC3)cn1)c1c[nH]nc12 (some centres unmarked)
PROPERTY_NAME: inhibition at 1 µM
UNIT_TAG: %
VALUE_REPORTED: 5

COMPOUND: C[C@]12CCC3c4cccc(F)c4CCC3C1[C@H](CCC(=O)Nc1cc(N3CCOCC3)ccn1)c1c[nH]nc12 (some centres unmarked)
PROPERTY_NAME: inhibition at 1 µM
UNIT_TAG: %
VALUE_REPORTED: 2

Go through the items and report each one's inhibition at 1 µM.
1. Cc1ccnc(NC(=O)CC[C@@H]2c3c[nH]nc3[C@@]3(C)CCC4c5ccccc5CCC4C23)c1 (some centres unmarked)
2. Cc1ccc(NC(=O)CC[C@@H]2c3c[nH]nc3[C@@]3(C)CCC4c5cccc(F)c5CCC4C23)nn1 (some centres unmarked)
3. C[C@]12CCC3c4ccc(F)cc4CCC3C1[C@H](CCC(=O)Nc1cccnn1)c1c[nH]nc12 (some centres unmarked)
4. COc1ccc(NC(=O)CC[C@@H]2c3c[nH]nc3[C@@]3(C)CCC4c5ccc(F)cc5CCC4C23)nc1 (some centres unmarked)
5. C[C@]12CCC3c4cccc(F)c4CCC3C1[C@H](CCC(=O)Nc1cc3c([nH]c1=O)CCCC3)c1c[nH]nc12 (some centres unmarked)
6. CN(C)C(=O)c1ccc(NC(=O)CC[C@@H]2c3c[nH]nc3[C@@]3(C)CCC4c5ccccc5CCC4C23)nc1 (some centres unmarked)
7. C[C@]12CCC3c4ccccc4CCC3C1[C@H](CCC(=O)Nc1cccc(F)n1)c1c[nH]nc12 (some centres unmarked)
8. C[C@]12CCC3c4ccc(Cl)cc4CCC3C1[C@H](CCC(=O)Nc1cc(F)ccn1)c1c[nH]nc12 (some centres unmarked)

5
3
-1
2
3
10
2
8

----------
SYSTEM_UNDER_TEST: recombinant human 17β-HSD1 (Homo sapiens, UniProt P14061)
Construct: made in house; host or cells: Sd9 (Sf9) insect cells, baculovirus (Bac to Bac Expression System)
Sequence (P14061 whole entry): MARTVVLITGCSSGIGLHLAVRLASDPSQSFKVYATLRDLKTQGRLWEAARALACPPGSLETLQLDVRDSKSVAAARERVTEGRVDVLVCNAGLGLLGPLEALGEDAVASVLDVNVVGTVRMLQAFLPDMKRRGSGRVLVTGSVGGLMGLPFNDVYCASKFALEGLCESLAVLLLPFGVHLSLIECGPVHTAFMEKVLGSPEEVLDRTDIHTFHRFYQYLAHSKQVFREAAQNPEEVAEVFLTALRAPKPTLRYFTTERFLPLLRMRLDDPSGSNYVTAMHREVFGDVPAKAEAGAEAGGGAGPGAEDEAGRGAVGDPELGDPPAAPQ
EXPERIMENT_DESCRIPTION: Inhibition of recombinant human 17β-HSD1 (estrone to estradiol conversion, HPLC/radioactivity)
Type: biochemical
EXPERIMENTAL_SETUP: compound 100 nM; 30 nM estrone, 1 mM NADPH, 30 min RT
PROPERTY_NAME: inhibition at 0.1 µM (%)
One number for each entry, in %.

Use these answered entries as a reference point.
COMPOUND: Cn1cc(NC(=O)CC[C@@H]2c3c[nH]nc3[C@@]3(C)CCC4c5cccc(F)c5CCC4C23)cn1 (stereo partly shown)
inhibition at 0.1 µM / %: 96
//
COMPOUND: C[C@]12CCC3c4cccc(F)c4CCC3C1[C@H](CCC(=O)Nc1cc(F)ccn1)c1c[nH]nc12 (stereo partly shown)
inhibition at 0.1 µM / %: 96
//
COMPOUND: Cc1ccnc(NC(=O)CC[C@@H]2c3c[nH]nc3[C@@]3(C)CCC4c5ccccc5CCC4C23)c1 (stereo partly shown)
inhibition at 0.1 µM / %: 90
//
COMPOUND: C[C@]12CCC3c4ccccc4CCC3C1[C@H](CCC(=O)Nc1ccc(N3CCOCC3)cn1)c1c[nH]nc12 (stereo partly shown)
inhibition at 0.1 µM / %: 90
//
COMPOUND: CCN(CC)C(=O)CC[C@@H]1c2c[nH]nc2[C@@]2(C)CCC3c4cccc(F)c4CCC3C12 (stereo partly shown)
inhibition at 0.1 µM / %: 93

Go through the items and report each one's inhibition at 0.1 µM.
1. COc1ccnc(NC(=O)CC[C@@H]2c3c[nH]nc3[C@@]3(C)CCC4c5ccccc5CCC4C23)c1 (stereo partly shown)
2. COc1ccc(NC(=O)CC[C@@H]2c3c[nH]nc3[C@@]3(C)CCC4c5ccc(F)cc5CCC4C23)nn1 (stereo partly shown)
3. C[C@]12CCC3c4ccc(F)cc4CCC3C1[C@H](CCC(=O)Nc1cnccn1)c1c[nH]nc12 (stereo partly shown)

85
56
67

Go through the items and report each one's inhibition at 0.1 µM.
1. CC(C)c1ccc(NC(=O)CC[C@@H]2c3c[nH]nc3[C@@]3(C)CCC4c5cccc(F)c5CCC4C23)nc1 (stereo partly shown)
2. COc1ccc(NC(=O)CC[C@@H]2c3c[nH]nc3[C@@]3(C)CCC4c5ccc(F)cc5CCC4C23)nc1 (stereo partly shown)

1: 100; 2: 87

Go through the items and report each one's inhibition at 0.1 µM.
1. C[C@]12CCC3c4ccccc4CCC3C1[C@H](CCC(=O)N1CCC3(CCOCC3)C1)c1c[nH]nc12 (stereo partly shown)
2. C[C@]12CCC3c4cccc(F)c4CCC3C1[C@H](CCC(=O)NC1CCCCC1)c1c[nH]nc12 (stereo partly shown)
3. Cn1ccc(NC(=O)CC[C@@H]2c3c[nH]nc3[C@@]3(C)CCC4c5cccc(F)c5CCC4C23)n1 (stereo partly shown)

89
95
87

Go through the items and report each one's inhibition at 0.1 µM.
1. CC(C)c1ccc(NC(=O)CC[C@@H]2c3c[nH]nc3[C@@]3(C)CCC4c5ccccc5CCC4C23)nc1 (stereo partly shown)
2. C[C@]12CCC3c4ccccc4CCC3C1[C@H](CCC(=O)Nc1ccc(F)cn1)c1c[nH]nc12 (stereo partly shown)
3. C[C@]12CCC3c4ccc(Cl)cc4CCC3C1[C@H](CCC(=O)Nc1cc(F)ccn1)c1c[nH]nc12 (stereo partly shown)

[94, 90, 84]
